target: HIV-1 YU2 gp120 (HIV-1 YU2, UniProt P35961 32-498); experiment: SPR
In this section we review reported kon values for a set of binders.

BINDER	UNIT_SYMBOL	kon
MVN_Q81K/G85Q (natural protein) MPNFSHTCSSINYDPDSTILSAECQARDGEWLPTELRLSDHIGNIDGELQFGDQNFQETCQDCHLEFGDGEQSVWLVCTCKTMDQEWKSTQILLDSQIDNNDSQLEIG	M⁻¹ s⁻¹	880
MVN_G43E/Q81K/M83R/G85Q (natural protein) MPNFSHTCSSINYDPDSTILSAECQARDGEWLPTELRLSDHIENIDGELQFGDQNFQETCQDCHLEFGDGEQSVWLVCTCKTRDQEWKSTQILLDSQIDNNDSQLEIG	M⁻¹ s⁻¹	1490
MVN(Q81K/M83R) (natural protein) MPNFSHTCSSINYDPDSTILSAECQARDGEWLPTELRLSDHIGNIDGELQFGDQNFQETCQDCHLEFGDGEQSVWLVCTCKTRDGEWKSTQILLDSQIDNNDSQLEIG	M⁻¹ s⁻¹	1880
MVN_G43E/M83R (natural protein) MPNFSHTCSSINYDPDSTILSAECQARDGEWLPTELRLSDHIENIDGELQFGDQNFQETCQDCHLEFGDGEQSVWLVCTCQTRDGEWKSTQILLDSQIDNNDSQLEIG	M⁻¹ s⁻¹	980
